- Test System: PU.1 (Mus musculus, UniProt P17433)
- Construct: endogenous in cells
- Protocol Details: Luciferase assay (luminescence) in BV2 PU.1-Luciferase reporter cells
- Assay Setup: luminescence reduction in BV2 PU.1-Luciferase cells, concentration-response, Hill's equation
Would you kindly list IC50 for each of these compounds?
Answers are plain numbers, in nM.

| Compound | Units | Result Value |
| --- | --- | --- |
| Cc1ccc(-c2c(C)n3c4c(=O)n(C)c(=O)n(C)c4nc3n2CCO)cc1 [Compound 2H5] | nM | 155 |

List IC50 for every entry below, keeping the order given.
1. Cc1c(Cl)cccc1-n1ncc(C(=O)Nc2ccc3c(c2)OCCO3)c1C1CCN(C(=O)OC(C)(C)C)CC1 [Compound 2D3]
2. CCOc1ccc(S(=O)(=O)Nc2ccc3c(c2)c(C(C)=O)c(C)n3S(=O)(=O)c2ccc(OCC)cc2)cc1 [Compound 1A5]
3. Cc1cccc(Cn2cccc(C(=O)Nc3nc4ccccc4s3)c2=O)c1 [Compound 2F11]

## Output
1. 2650
2. 2930
3. 303

----------
Can you tell me mRNA levels IL1β for the items I'm about to list?
- Tested on: PU.1 dependent gene expression
- Protocol Details: RT-qPCR of mRNA levels in BV2 PU.1-Luciferase cells (validation round 3)
- Assay type: cell-based, mouse
- Assay Setup: 2-day treatment

Please review the following examples before continuing.
| Compound | mRNA levels IL1β |
| --- | --- |
| CCOC(=O)Cn1c(=O)n(C2CCCCC2)c2nc(-c3cccc(F)c3)nc(C(N)=O)c21 [Compound 2E4] | 1.077 multiples of 1× |
| CCCC(=O)Nc1nnc(SCc2cc(=O)c3ccc(C)cc3[nH]2)s1 [Compound 2E6] | 0.810 multiples of 1× |

Go through the items and report each one's mRNA levels IL1β.
1. CC(C)c1ccc(NC(=O)Cn2c(=O)oc3cc(S(=O)(=O)N4CCCC4)ccc32)cc1 [Compound 2A9]
2. COc1cc(NS(=O)(=O)c2ccc3c(c2)CC(C)N3C(=O)C2CCC2)cc(OC)c1OC (stereo not shown) [Compound 2C3]
3. CSc1ccc(C=Cc2nc3ccccc3n2S(=O)(=O)c2ccc(F)c(C)c2)cc1 [Compound 2G10]
4. CC(=O)c1c(C)oc2ccc(N(C(=O)Oc3ccccc3)S(=O)(=O)c3ccc(C(C)(C)C)cc3)cc12 [Compound 1A2]
5. CCOc1ccc(S(=O)(=O)Nc2ccc3c(c2)c(C(C)=O)c(C)n3S(=O)(=O)c2ccc(OCC)cc2)cc1 [Compound 1A5]

## Output
["1.048 multiples of 1×", "1.043 multiples of 1×", "0.786 multiples of 1×", "1.054 multiples of 1×", "0.707 multiples of 1×"]

Could you tell me mRNA levels IL1β for each of these compounds? They are listed below.
1. CCOC(=O)c1oc2ccc(S(=O)(=O)n3nc(-c4ccccc4OC)cc3N)cc2c1C [Compound 1H7]
2. C[C@@H]1C[C@H]2[C@@H]3CCC4=CC(=O)C=C[C@]4(C)[C@@]3(F)[C@@H](O)C[C@]2(C)[C@@]1(O)C(=O)CO [Dexamethasone, reference compound]
3. CCOc1ccc(S(=O)(=O)NCc2ccncc2)cc1C(C)C [Compound D09]

## Output
1: 1.017 multiples of 1×; 2: 1.041 multiples of 1×; 3: 0.938 multiples of 1×

# per-item lookup of mRNA levels IL1β; items listed below
1. N#CC(=CNc1ccc2c(c1)OCCO2)c1nc2ccccc2[nH]1 [Compound A09]
2. COc1ccc(NS(=O)(=O)c2ccc3c(c2)CCCN3C(=O)C2CCC2)cc1OC [Compound 2F7]
3. CCOC(=O)c1ccc(NS(=O)(=O)c2cc(Br)cc3c2N(C(C)=O)C(C)C3)cc1 (stereo not shown) [Compound 1D3]

## Output
0.644 multiples of 1×
0.460 multiples of 1×
1.144 multiples of 1×

Record mRNA levels IL1β per entry; entries follow.
1. Cc1nc(-c2ccc(S(=O)(=O)Nc3ccc(C)c(N(C)C)c3)cc2)co1 [Compound 2F3]
2. CC(C)c1ccc(C2Sc3ccccc3NC3=C2C(=O)c2ccccc23)cc1 (stereo not shown) [Compound 1B5]
3. CCOC(=O)O[C@]1(C(=O)OCCl)CC[C@H]2[C@@H]3CCC4=CC(=O)C=C[C@]4(C)[C@H]3[C@@H](O)C[C@@]21C [Loteprednol, reference compound]
4. CCOc1ccc(-c2nc(CSCC(=O)NCc3ccc(Cl)cc3)c(C)o2)cc1 [Compound 2H3]

## Output
0.386 multiples of 1×
0.843 multiples of 1×
0.805 multiples of 1×
0.915 multiples of 1×
